Below, each entry is listed with its recorded Population Mitochondria Different-Phenotype (%).
Tested on: Fibroblast
Test: Multiplex assay against human fibroblast
Format: toxicity, cell-based
Conditions: 12 h, 10 µM, compound concentration 10 uM, number of replicates 2
Numbers only; they are read as %.

compound="CC1=C(C)C(=O)C(C(CCCCCC(=O)O)c2ccccc2)=C(C)C1=O (stereo not drawn) [SERATRODAST]" unit_of_measure=% numeric_value=1
compound=CNc1ncc2cc(-c3ccc(-c4cccc(C)n4)cc3Cl)c(=O)n(C[C@H]3OC[C@H](N)CO3)c2n1 unit_of_measure=% numeric_value=0
compound=CNS(=O)(=O)c1ccc(N(C)C)c(Nc2ncnc3cc(OC)c(OC)cc23)c1 unit_of_measure=% numeric_value=1
compound=O=C(Nc1ccnc(NC(=O)C2CC2)c1)c1c(Cl)cccc1Cl unit_of_measure=% numeric_value=0
compound=CN1CCc2cc(Nc3ncc(C(F)(F)F)c(NCc4cc[nH]n4)n3)ccc2C1 unit_of_measure=% numeric_value=1

[ask] Please give the documented Population Mitochondria Different-Phenotype (%) of CC(C)c1c(NC(=O)Nc2ccc(Cl)cc2)c(=O)n(-c2ccccc2)n1C
[reply] 1

[ask] Please give the documented Population Mitochondria Different-Phenotype (%) of CSc1cc2c(cc1C(F)(F)F)N(C(=O)Nc1cccnc1)CC2
[reply] 0

[ask] Please give the documented Population Mitochondria Different-Phenotype (%) of COc1ccncc1C(=O)NC(=O)Nc1ccc(-c2ccccc2)c(C(F)(F)F)c1
[reply] 2

====

Tested on: HEK-293T
Assay: Multiplex assay against HEK293T
Format: toxicity, cell-based
Settings: human, 48 h, 10 µM, compound concentration 10 uM, number of replicates 2
readout.label: Population Mitochondria Different-Phenotype (%)
Number first, unit second: that is the form wanted.

Consider the worked cases shown below.
chemical_string=COc1cc(N(C)c2ccnc3ccc(C(F)(F)F)cc23)cc(OC)c1OC result=9%
chemical_string=O=C(Nc1ccnc(NC(=O)C2CC2)c1)c1c(Cl)cccc1Cl result=2%

Now for another entry.
[ask] Please give the documented Population Mitochondria Different-Phenotype (%) of CNS(=O)(=O)c1ccc(N(C)C)c(Nc2ncnc3cc(OC)c(OC)cc23)c1
[reply] 2%

====

Tested on: U2OS
Test: Multiplex assay against U2OS
Assay type: toxicity, cell-based
Conditions: human, 24 h, 10 µM, compound concentration 10 uM, number of replicates 2
Below, each entry is listed with its recorded Population Normal (%).
Numbers only; they are read as %.

compound=COC(=O)Nc1nc2c(s1)-c1c(c(-c3cccnc3)nn1-c1ccc(C3(N(C)C)CC3)cc1)CC2.Cl.Cl assayed_system=U2OS numeric_value=99
compound=O=C(Nc1ccnc(NC(=O)C2CC2)c1)c1c(Cl)cccc1Cl assayed_system=U2OS numeric_value=100
compound=CCN(CC)C/C=C/C(=O)Nc1cc2c(Nc3ccc(F)c(Cl)c3)ncnc2cc1OCC1CC1 assayed_system=U2OS numeric_value=98

[ask] Please give the documented Population Normal (%) of Cl.Clc1ccc2nsnc2c1NC1=NCCN1 [TIZANIDINE HYDROCHLORIDE]
[reply] 100

[ask] Please give the documented Population Normal (%) of CN(C)CCCNc1ccnc(Nc2cccc(Cl)c2)n1
[reply] 100

====

Test system: Fibroblast
Experiment: Multiplex assay against human fibroblast
Assay type: toxicity, cell-based
Settings: 24 h, 10 µM, compound concentration 10 uM, number of replicates 2
readout.label: Population Membrane Permeable-Phenotype (%)
Numbers only; they are read as %.

Consider the worked cases shown below.
molecule=COc1cc(N(C)c2ccnc3ccc(C(F)(F)F)cc23)cc(OC)c1OC unit_of_measure=% numeric_value=4
molecule=COc1ccccc1-c1cc(Nc2cccc(CS(N)(=O)=O)c2)ncn1 unit_of_measure=% numeric_value=1
molecule=NC(=O)c1ccc(-c2nc(-c3ccc4c(c3)OCCO4)c(-c3ccccn3)[nH]2)cc1 unit_of_measure=% numeric_value=2
molecule=Cc1cn(CCN2CCN(c3ccccc3-c3cc(C#N)cc(C(=O)NCCCN4CCCC4)c3)CC2)c2ccccc12 unit_of_measure=% numeric_value=2

Now for another entry.
[ask] Fill in: Population Membrane Permeable-Phenotype (%) on Fibroblast, entry CC1=C(C)C(=O)C(C(CCCCCC(=O)O)c2ccccc2)=C(C)C1=O (stereo not given)
[reply] 3

====

Test system: Fibroblast
Assay: Multiplex assay against human fibroblast
Type: toxicity, cell-based
Details: 24 h, 1 µM, compound concentration 1 uM, number of replicates 2
readout.label: Population Healthy Nuclei (%)
Numbers only; they are read as %.

Consider the worked cases shown below.
compound=CS(=O)(=O)c1ccc(C(=O)Nc2cccc(COc3cc(F)c(Br)cc3CN3CC[C@H](O)C3)c2)c(Cl)c1.O=CO readout_label="Population Healthy Nuclei (%)" unit_of_measure=% numeric_value=50
compound="CC(C)N1CCN(Cc2cnc(-c3cc(-c4cccc5[nH]ccc45)cc4[nH]ncc34)o2)CC1 [NEMIRALISIB]" readout_label="Population Healthy Nuclei (%)" unit_of_measure=% numeric_value=70
compound=C=CC(=O)Nc1cccc(C)c1Nc1ncc2cc(-c3c(Cl)c(OC)cc(OC)c3Cl)ccc2n1 readout_label="Population Healthy Nuclei (%)" unit_of_measure=% numeric_value=71

[ask] Please give the documented Population Healthy Nuclei (%) of CNc1ncc2cc(-c3ccc(-c4cccc(C)n4)cc3Cl)c(=O)n(C[C@H]3OC[C@H](N)CO3)c2n1
[reply] 56

[ask] Please give the documented Population Healthy Nuclei (%) of O=C1Nc2ccc(C(=O)c3ccco3)cc2C1=Cc1cc(Cl)c(O)c(Cl)c1 [GW406108X]
[reply] 72

[ask] Please give the documented Population Healthy Nuclei (%) of CC(C)S(=O)(=O)c1ccccc1Nc1nc(N[C@@H]2CCCN(CCCCCCCNC(=O)COc3cccc4c3C(=O)N(C3CCC(=O)NC3=O)C4=O)C2)ncc1Cl (stereo partly specified)
[reply] 51

====

Test system: HEK-293T
Assay: Multiplex assay against HEK293T
Type: toxicity, cell-based
Conditions: human, 48 h, 10 µM, compound concentration 10 uM, number of replicates 2
Below, each entry is listed with its recorded Population Normal (%).
Numbers only; they are read as %.

Consider the worked cases shown below.
molecule=CS(=O)(=O)c1ccc(C(=O)Nc2cc(F)cc(COc3cc(F)c(Br)cc3CN3CC[C@H](O)C3)c2)c(Cl)c1.O=CO assayed_system=HEK-293T unit_of_measure=% numeric_value=83
molecule="Cc1ccc2c(N)c(C(=O)NC3CCc4cc(N5CC6CCC(C5)N6)ccc4C3)sc2n1.O=CO (stereo unspecified)" assayed_system=HEK-293T unit_of_measure=% numeric_value=32
molecule="CC1=C(C)C(=O)C(C(CCCCCC(=O)O)c2ccccc2)=C(C)C1=O (stereo unspecified)" assayed_system=HEK-293T unit_of_measure=% numeric_value=91
molecule=COc1ccccc1-c1cc(Nc2cccc(CS(N)(=O)=O)c2)ncn1 assayed_system=HEK-293T unit_of_measure=% numeric_value=93
molecule=Cn1cc(-c2ccc(-c3cncc(Cl)c3N3CCC4(CCNC4=O)CC3)cc2)cn1 assayed_system=HEK-293T unit_of_measure=% numeric_value=89

Now for another entry.
[ask] Please give the documented Population Normal (%) of CNS(=O)(=O)c1ccc(N(C)C)c(Nc2ncnc3cc(OC)c(OC)cc23)c1
[reply] 87

====

System: HEK-293T
Assay: Multiplex assay against HEK293T
Assay type: toxicity, cell-based
Details: human, 12 h, 10 µM, compound concentration 10 uM, number of replicates 2
readout.label: Population Fragmented Nuclei (%)
Numbers only; they are read as %.

Consider the worked cases shown below.
chemical_string=C=CC(=O)Nc1cccc(C)c1Nc1ncc2cc(-c3c(Cl)c(OC)cc(OC)c3Cl)ccc2n1 unit_of_measure=% numeric_value=4
chemical_string=NC(=O)c1ccc(-c2nc(-c3ccc4c(c3)OCCO4)c(-c3ccccn3)[nH]2)cc1 unit_of_measure=% numeric_value=3
chemical_string=CN1CCc2cc(Nc3ncc(C(F)(F)F)c(NCc4cc[nH]n4)n3)ccc2C1 unit_of_measure=% numeric_value=5
chemical_string=COc1ccc(CC[C@@H](OC(=O)[C@@H]2CCCCN2C(=O)[C@H](c2cc(OC)c(OC)c(OC)c2)C2CCCCC2)c2cccc(OCCN3CCOCC3)c2)cc1OC unit_of_measure=% numeric_value=2
chemical_string=Cc1cn(CCN2CCN(c3ccccc3-c3cc(C#N)cc(C(=O)NCCCN4CCCC4)c3)CC2)c2ccccc12 unit_of_measure=% numeric_value=2

Now for another entry.
[ask] Please give the documented Population Fragmented Nuclei (%) of COC(=O)Nc1nc2c(s1)-c1c(c(-c3cccnc3)nn1-c1ccc(C3(N(C)C)CC3)cc1)CC2.Cl.Cl
[reply] 5

====

Below, each entry is listed with its recorded Population Pyknosed Nuclei (%).
Test system: HEK-293T
Experiment: Multiplex assay against HEK293T
Type: toxicity, cell-based
Settings: human, 12 h, 1 µM, compound concentration 1 uM, number of replicates 2
Numbers only; they are read as %.

Consider the worked cases shown below.
compound="Cc1ccc2c(N)c(C(=O)NC3CCc4cc(N5CC6CCC(C5)N6)ccc4C3)sc2n1.O=CO (stereo unspecified)" readout_label="Population Pyknosed Nuclei (%)" numeric_value=11
compound=O=C1NC(=O)C(c2ccccc2[N+](=O)[O-])=C1Nc1ccc(O)c(Cl)c1 readout_label="Population Pyknosed Nuclei (%)" numeric_value=13
compound=CCN1C(=O)N(c2c(F)c(OC)cc(OC)c2F)Cc2cnc3[nH]c(CN4CCOCC4)cc3c21 readout_label="Population Pyknosed Nuclei (%)" numeric_value=13
compound=CNS(=O)(=O)c1ccc(N(C)C)c(Nc2ncnc3cc(OC)c(OC)cc23)c1 readout_label="Population Pyknosed Nuclei (%)" numeric_value=14
compound=CN1CCc2cc(Nc3ncc(C(F)(F)F)c(NCc4cc[nH]n4)n3)ccc2C1 readout_label="Population Pyknosed Nuclei (%)" numeric_value=17

Now for another entry.
[ask] Please give the documented Population Pyknosed Nuclei (%) of CSc1cc2c(cc1C(F)(F)F)N(C(=O)Nc1cccnc1)CC2
[reply] 10
